- Test system: STING activation (IFNβ release) in iBMDMs
- EXPERIMENTAL_DETAILS: IFNβ release ELISA after STING ligand (or LPS) stimulation, iBMDMs
- Format: cell-based, mouse
- ASSAY_CONTEXT: iBMDMs; 3′3′-cGAMP 10 μg/ml, 16 hours; compound 10 μM
The entries below come with measured fold increase in IFN-β release values attached.
MEASUREMENT_TYPE: fold increase in IFN-β release

1) CCO[C@@H]1OC(=O)C[C@@H]1NC(=O)[C@@H]1CCCN1C(=O)[C@@H](NC(=O)c1ccc(N)c(Cl)c1)C(C)(C)C; 1.67 fold
2) O=c1oc2cc(O)ccc2s1; 1.88 fold
3) Nc1cccc2c1C(=O)N(C1CCC(=O)NC1=O)C2=O (centres unmarked) [Pomalidomide]; 2.12 fold
4) C[C@H](Oc1cc(-c2cnn(C3CCNCC3)c2)cnc1N)c1c(Cl)ccc(F)c1Cl [(S)-crizotinib]; 3.05 fold
5) c1ccc(NCc2ccc(CNc3ccccn3)cc2)nc1; 1.67 fold

====

- Test system: STING activation (IFNβ release) in iBMDMs
- EXPERIMENTAL_DETAILS: IFNβ release ELISA after STING ligand (or LPS) stimulation, iBMDMs
- Format: cell-based, mouse
- ASSAY_CONTEXT: iBMDMs; 3′3′-cGAMP 10 μg/ml, 16 hours; compound 10 μM
MEASUREMENT_TYPE: fold increase in IFN-β release (fold)

1) C#Cc1cccc(Nc2ncnc3cc4c(cc23)OCCOCCOCCO4)c1; 0.57
2) N#CC1(c2ccc(NC(=O)c3cccnc3NCc3ccncc3)cc2)CCCC1; 0.26
3) Nc1ncnc2n[nH]c(Nc3ccc(F)cc3)c12; 0.54
4) NC(=O)c1cccc(-c2cccc(OC(=O)NC3CCCCC3)c2)c1; 2.07
5) COc1ccc(-c2cnc3c(-c4cccc5ncccc45)cnn3c2)cc1; 1.95

====

- Tested on: STING activation (IFNβ release) in iBMDMs
- EXPERIMENTAL_DETAILS: IFNβ release ELISA after STING ligand (or LPS) stimulation, iBMDMs
- Assay type: cell-based, mouse
- ASSAY_CONTEXT: iBMDMs; 3′3′-cGAMP 10 μg/ml, 16 hours; compound 10 μM
- Description: Commercially available enzyme-linked immunosorbent assay (ELISA) kits were used to measure the concentrations of mouse IFNβ (Thermo Fisher Scientific) or human IFNβ (Thermo Fisher Scientific) in culture medium according to the manufacturer's instructions. […]
Counter-ions that a name gives are not always drawn.
The entries below come with measured fold increase in IFN-β release values attached.
MEASUREMENT_TYPE: fold increase in IFN-β release

1) c1ccc(CC2=NCCN2)cc1 [Tolazoline HCl]; 1.46 fold
2) COc1cc2c(N3CCN(C(=O)Nc4ccc(OC(C)C)cc4)CC3)ncnc2cc1OCCCN1CCCCC1; 0.65 fold
3) COC(=O)CCSCc1ccc(-c2onc(C)c2NC(=O)OC(C)c2ccccc2Cl)cc1 (stereo not shown); 0.51 fold
4) CN(C)CCc1c[nH]c2ccc(Cn3cncn3)cc12 [Rizatriptan Benzoate]; 2.85 fold
5) C[C@H](CS)C(=O)N1CCC[C@H]1C(=O)O; 2.62 fold
6) CC(C)(C)c1cnc(CSc2cnc(NC(=O)C3CCNCC3)s2)o1; 1.01 fold
7) CCOC(=O)N1c2ccc(C(F)(F)F)cc2[C@@H](N(Cc2cc(C(F)(F)F)cc(C(F)(F)F)c2)C(=O)OC)C[C@H]1CC; 3.84 fold
8) O[C@@H](COc1cccc2ncccc12)CN1CCN([C@@H]2c3ccccc3[C@@H]3[C@H](c4ccccc42)C3(F)F)CC1 [Zosuquidar (LY335979) 3HCl, Zosuquidar]; 4.10 fold
9) COc1ccc([C@]2(C#N)CC[C@@H](C(=O)O)CC2)cc1OC1CCCC1; 2.08 fold
10) CCN(CC)C(=O)/C(C#N)=C/c1cc(O)c(O)c([N+](=O)[O-])c1; 0.76 fold
11) COc1cc2c(cc1Cc1cccc(Cl)c1F)c(=O)c(C(=O)O)cn2[C@H](CO)C(C)C; 2.56 fold
12) O=c1ncn2nc(Sc3ccc(F)cc3F)ccc2c1-c1c(Cl)cccc1Cl; 6.18 fold
13) C[C@@H]1C(=O)O[C@H]2C[C@@]34[C@H]5C[C@@H](C(C)(C)C)[C@]36[C@@H](OC(=O)[C@@H]6O)O[C@@]4(C(=O)O5)[C@]21O [Ginkgolide A]; 2.14 fold
14) Cc1ccc(S(=O)(=O)NC(=O)NN2CC3CCCC3C2)cc1 (stereo not shown) [Gliclazide]; 1.93 fold
15) CC(C)OC(=O)OCOP(=O)(CO[C@H](C)Cn1cnc2c(N)ncnc21)OCOC(=O)OC(C)C [Tenofovir Disoproxil Fumarate]; 2.88 fold
16) COc1nc(C)cnc1NS(=O)(=O)c1cccnc1-c1ccc(-c2nnco2)cc1 [Zibotentan (ZD4054), Zibotentan]; 1.17 fold
17) COc1ccccc1OCCNCC(O)COc1cccc2[nH]c3ccccc3c12 (stereo not shown); 1.87 fold
18) CC(C)NCC(O)COc1cccc2ccccc12 (stereo not shown) [Propranolol HCl]; 2.07 fold
19) COc1cc(C(=O)NC2CCN(C)CC2)ccc1Nc1ncc2c(n1)N(C1CCCC1)CC(F)(F)C(=O)N2C; 2.16 fold
20) CCC(=O)NCC[C@@H]1CCc2ccc3c(c21)CCO3; 0.56 fold
21) O=C(NCCO)c1cccc(-c2cc(Nc3ccc(OC(F)(F)F)cc3)ncn2)c1; 2.94 fold
22) CC(C)CCNC(=O)[C@H](CC(C)C)NC(=O)[C@H]1O[C@@H]1C(=O)O [Loxistatin Acid (E-64C), Loxistatin Acid]; 0.70 fold
23) CC1=C(/C=C/C(C)=C/C=C/C(C)=C\C(=O)O)C(C)(C)CCC1; 0.10 fold
24) Cc1ccc2nc(NC(=O)CSc3nc4c(c(=O)n3-c3ccccc3)SCC4)sc2c1; 3.84 fold
25) CN(C)C(=O)c1ccc(S(=O)(=O)c2ccc(NC(=O)[C@@](C)(O)C(F)(F)F)c(Cl)c2)cc1; 3.45 fold
26) Cc1ccc(NC(=O)c2ccc(CN3CCN(C)CC3)cc2)cc1Nc1nccc(-c2cccnc2)n1 [Imatinib (STI571), Imatinib]; 1.04 fold
27) COc1cc(F)c(C(C)C)cc1-c1ccc(C(F)(F)F)cc1CN1C(=O)O[C@H](c2cc(C(F)(F)F)cc(C(F)(F)F)c2)[C@@H]1C; 2.12 fold
28) Cc1ccc2c(=O)c3cccc(CC(=O)O)c3oc2c1C; 3.23 fold
29) Cc1ccc(NCCCc2ccccc2)c(N)c1; 2.80 fold
30) C=CC(=O)Nc1cccc(Nc2nc(Nc3ccc(NC4CN(CCF)C4)cc3OC)ncc2C(F)(F)F)c1; 1.93 fold
31) Oc1ncnc2[nH]ncc12; 3.15 fold

====

- System: STING activation (IFNβ release) in iBMDMs
- EXPERIMENTAL_DETAILS: IFNβ release ELISA after STING ligand (or LPS) stimulation, iBMDMs
- Type: cell-based, mouse
- ASSAY_CONTEXT: iBMDMs; 3′3′-cGAMP 10 μg/ml, 16 hours; compound 10 μM
Counter-ions that a name gives are not always drawn.
Consider the cut-off 1 fold. If the recorded fold increase in IFN-β release is strictly smaller, the label is Fulfilled; if not, the label is Not fulfilled.

1) CC(C)NCC(O)COc1ccc(COCCOC(C)C)cc1 (stereo not drawn) [Bisoprolol fumarate]; Fulfilled
2) NC(=O)Nc1sc(-c2ccc(F)cc2)cc1C(N)=O; Not fulfilled
3) O=C(O)/C=C/c1ccc(Cn2ccnc2)cc1; Fulfilled
4) O=C(NNc1nc2cc(F)ccc2n2cccc12)c1cnccn1; Not fulfilled
5) Cc1ccc(-n2nccn2)c(C(=O)N2CCN(c3nc4cc(Cl)ccc4o3)CC[C@H]2C)c1; Not fulfilled
6) Cc1cccc(-c2nn3c(c2-c2ccnc4ccc(C(N)=O)cc24)CCC3)n1; Not fulfilled
7) NC(=O)Nc1cc(-c2cccc(F)c2)sc1C(=O)N[C@H]1CCCNC1; Fulfilled
8) Cc1c(C(=O)NN2CCCCC2)nn(-c2ccc(Cl)cc2Cl)c1-c1ccc(Cl)cc1; Fulfilled
9) CCOc1ccccc1-n1c(C(C)N2CCN(C(=O)COc3ccc(Cl)cc3)CC2)nc2ccccc2c1=O (stereo not drawn); Not fulfilled
10) O=C1NC(=O)/C(=C/c2cccc(C(F)(F)F)c2)S1; Fulfilled
11) CC(C)c1noc(N2CCC(COc3ccc(-c4ccc(S(C)(=O)=O)cc4)nc3)CC2)n1; Not fulfilled
12) C[C@@H]1O[C@@H](O[C@H]2C[C@@H](O)[C@]3(CO)[C@H]4[C@H](O)C[C@]5(C)[C@@H](C6=CC(=O)OC6)CC[C@]5(O)[C@@H]4CC[C@]3(O)C2)[C@H](O)[C@H](O)[C@H]1O; Not fulfilled
13) O=C(Nc1ccccc1-c1cn2c(CN3CCNCC3)csc2n1)c1cnc2ccccc2n1; Fulfilled
14) Nc1nc(N)c2nc(-c3cccc(O)c3)c(-c3cccc(O)c3)nc2n1; Not fulfilled
15) Cc1c(NC(=O)c2ccc(C(C)(C)C)cc2)cccc1-c1cn(C)c(=O)c(Nc2ccc(C(=O)N3CCOCC3)cc2)n1; Fulfilled
16) COc1ccc2cccc(CCNC(C)=O)c2c1; Fulfilled
17) CCCC(=O)Nc1cccc(NC(=O)c2ccccc2Br)c1; Fulfilled
